test.target: p52 (Homo sapiens)
Sequence (Q00653 1-454 limits assumed): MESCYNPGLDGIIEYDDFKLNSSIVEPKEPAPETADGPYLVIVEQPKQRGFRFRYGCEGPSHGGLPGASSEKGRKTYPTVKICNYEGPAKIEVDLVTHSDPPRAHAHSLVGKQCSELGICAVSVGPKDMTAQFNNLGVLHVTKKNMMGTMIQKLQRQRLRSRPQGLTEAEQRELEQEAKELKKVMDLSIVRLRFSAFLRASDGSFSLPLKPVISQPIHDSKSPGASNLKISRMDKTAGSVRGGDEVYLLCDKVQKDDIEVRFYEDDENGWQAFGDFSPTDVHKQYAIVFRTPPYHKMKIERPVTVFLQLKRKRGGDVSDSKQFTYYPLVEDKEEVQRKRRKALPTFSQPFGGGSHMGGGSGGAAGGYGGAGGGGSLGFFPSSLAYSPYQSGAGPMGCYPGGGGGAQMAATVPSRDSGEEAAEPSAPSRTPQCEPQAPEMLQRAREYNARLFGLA
assay.info: TransAM NF-κB Family DNA Binding ELISA, p52
study.conditions: p52 binding IC50 (uM), cells without % sign
Where a name gives a salt, the structure may show the parent alone.
assay.readout: IC50 (µM)
Write the answer as a number in µM, unit excluded.

Name the recorded IC50 for O=C(NC1=CC(=O)C2OC2C1O)c1cc2ccccc2nc1O (racemic) [Example 2] .
6

Give the measured IC50 of COc1nc2ccccc2cc1C(=O)NC1=CC(=O)C2OC2C1=O (racemic) [Example 35] .
81

What does the data say about its IC50? Entry: O=C(NC1=CC(=O)C2OC2C1O)c1ncccc1O (racemic) [Example 3]
301

Name the recorded IC50 for O=C(NC1=CC(=O)C2OC2C1O)c1cnccc1O (racemic) [Example 4] .
365

Given COc1cc2ccccc2nc1C(=O)NC1=CC(=O)C2OC2C1O (racemic) [Example 31] , state its recorded IC50.
21

# lookup: IC50 of COc1nccnc1C(=O)NC1=CC(=O)C2OC2C1O (racemic) [Example 26]
84

Query (compound): O=C(NC1=CC(=O)C2OC2C1O)c1cccnc1O (racemic) [Example 1] ; field requested: IC50
13

What does the record list as IC50 for COc1ncccc1C(=O)NC1=CC(=O)C2OC2C1O (racemic) [Example 16] ?
3.7

Given O=C(NC1=CC(=O)C2OC2C1=O)c1cc2ccccc2nc1O (racemic) [Example 28] , state its recorded IC50.
9.6

Entry O=C(NC1=CC(=O)C2OC2C1=O)c1ccncc1O (racemic) [Example 34] has what IC50?
96

Data request, read-out IC50, for COc1c(C(=O)NC2=CC(=O)C3OC3C2O)ccc2cccnc12 (racemic) [Example 29]
59

So what's the measured IC50 for this one? COc1ncccc1C(=O)NC1=CC(=O)C2OC2C1O (racemic) [Example 21, trifluoroacetate]
22

What does the data say about its IC50? Entry: COc1nc2ccccc2cc1C(=O)NC1=CC(=O)C2OC2C1O (racemic) [Example 25]
4.7
